Consider the following pKi values measured on mGluR5 (UniProt P31424).
pKi: −log10 of the molar value.

INSERT INTO results (structure_as_smiles, value_measured) VALUES
  ('O=S(=O)(c1ccc(Cl)cc1)c1sc2ncccc2c1N1CCC(O)CC1', '5.82 to 6.30');

Ask: Lab note: mGluR5 (UniProt P31424) assay, enter pKi for O=S(=O)(c1cccc(F)c1)c1sc2nc(Cl)ccc2c1-c1ccc(Cl)cc1 here
Reply: 5.82 to 6.30

Ask: Lab note: mGluR5 (UniProt P31424) assay, enter pKi for CC1CCN(S(=O)(=O)c2sc3ncccc3c2-c2ccc(Cl)cc2)CC1 here
Reply: 5.82 to 6.30

Ask: Lab note: mGluR5 (UniProt P31424) assay, enter pKi for O=S(=O)(c1cccnc1)c1sc2ncccc2c1-c1ccc(Cl)cc1 here
Reply: > 6.30

Ask: Lab note: mGluR5 (UniProt P31424) assay, enter pKi for COc1ccc(S(=O)(=O)c2sc3ncccc3c2-c2cccc(Cl)c2)cc1F here
Reply: > 6.30

Ask: Lab note: mGluR5 (UniProt P31424) assay, enter pKi for O=S(=O)(c1ccc(Cl)cc1)c1sc2nccc(F)c2c1-c1ccc(Cl)cc1 here
Reply: > 6.30

Ask: Lab note: mGluR5 (UniProt P31424) assay, enter pKi for O=S(=O)(c1sc2ncccc2c1-c1ccc(Cl)cc1)C1CCCCC1 here
Reply: < 5.82

Ask: Lab note: mGluR5 (UniProt P31424) assay, enter pKi for N#Cc1cccc(S(=O)(=O)c2sc3ncccc3c2-c2cccc(Cl)c2)c1 here
Reply: > 6.30

Ask: Lab note: mGluR5 (UniProt P31424) assay, enter pKi for Nc1cnc2sc(S(=O)(=O)c3ccc(Cl)cc3)c(-c3ccc(Cl)cc3)c2c1 here
Reply: > 6.30

Ask: Lab note: mGluR5 (UniProt P31424) assay, enter pKi for O=S(=O)(c1ccc(Cl)c(Cl)c1)c1sc2ncccc2c1-c1ccc(Cl)cc1 here
Reply: > 6.30

Ask: Lab note: mGluR5 (UniProt P31424) assay, enter pKi for O=S(=O)(c1cc(F)cc(F)c1)c1sc2ncccc2c1-c1ccc(Cl)cc1 here
Reply: > 6.30

Ask: Lab note: mGluR5 (UniProt P31424) assay, enter pKi for Cc1ccc(S(=O)(=O)c2sc3ncccc3c2-c2ccc(Cl)cc2)cc1Cl here
Reply: > 6.30

Ask: Lab note: mGluR5 (UniProt P31424) assay, enter pKi for CC1CCN(c2c(S(=O)(=O)c3ccc(Cl)cc3)sc3ncccc23)CC1 here
Reply: > 6.30

Ask: Lab note: mGluR5 (UniProt P31424) assay, enter pKi for O=S(=O)(c1ccc(Cl)cc1Cl)c1sc2ncccc2c1-c1ccc(Cl)cc1 here
Reply: 5.82 to 6.30

Ask: Lab note: mGluR5 (UniProt P31424) assay, enter pKi for O=S(=O)(c1ccc(Cl)cc1)c1sc2ncccc2c1N1CCC(C(F)(F)F)CC1 here
Reply: > 6.30

Ask: Lab note: mGluR5 (UniProt P31424) assay, enter pKi for Cc1ccc(S(=O)(=O)c2sc3ncccc3c2-c2ccc(F)cc2)cc1 here
Reply: > 6.30

Ask: Lab note: mGluR5 (UniProt P31424) assay, enter pKi for COc1ccc(S(=O)(=O)c2sc3ncccc3c2-c2ccc(Cl)cc2)cc1F here
Reply: > 6.30

Ask: Lab note: mGluR5 (UniProt P31424) assay, enter pKi for O=S(=O)(Cc1ccccc1)c1sc2ncccc2c1-c1ccc(Cl)cc1 here
Reply: 5.82 to 6.30

----------
pKi: −log10 of the molar value.
Consider the following pKi values measured on rat mGluR1 (Rattus norvegicus).
Sequence (P23385 19-1199): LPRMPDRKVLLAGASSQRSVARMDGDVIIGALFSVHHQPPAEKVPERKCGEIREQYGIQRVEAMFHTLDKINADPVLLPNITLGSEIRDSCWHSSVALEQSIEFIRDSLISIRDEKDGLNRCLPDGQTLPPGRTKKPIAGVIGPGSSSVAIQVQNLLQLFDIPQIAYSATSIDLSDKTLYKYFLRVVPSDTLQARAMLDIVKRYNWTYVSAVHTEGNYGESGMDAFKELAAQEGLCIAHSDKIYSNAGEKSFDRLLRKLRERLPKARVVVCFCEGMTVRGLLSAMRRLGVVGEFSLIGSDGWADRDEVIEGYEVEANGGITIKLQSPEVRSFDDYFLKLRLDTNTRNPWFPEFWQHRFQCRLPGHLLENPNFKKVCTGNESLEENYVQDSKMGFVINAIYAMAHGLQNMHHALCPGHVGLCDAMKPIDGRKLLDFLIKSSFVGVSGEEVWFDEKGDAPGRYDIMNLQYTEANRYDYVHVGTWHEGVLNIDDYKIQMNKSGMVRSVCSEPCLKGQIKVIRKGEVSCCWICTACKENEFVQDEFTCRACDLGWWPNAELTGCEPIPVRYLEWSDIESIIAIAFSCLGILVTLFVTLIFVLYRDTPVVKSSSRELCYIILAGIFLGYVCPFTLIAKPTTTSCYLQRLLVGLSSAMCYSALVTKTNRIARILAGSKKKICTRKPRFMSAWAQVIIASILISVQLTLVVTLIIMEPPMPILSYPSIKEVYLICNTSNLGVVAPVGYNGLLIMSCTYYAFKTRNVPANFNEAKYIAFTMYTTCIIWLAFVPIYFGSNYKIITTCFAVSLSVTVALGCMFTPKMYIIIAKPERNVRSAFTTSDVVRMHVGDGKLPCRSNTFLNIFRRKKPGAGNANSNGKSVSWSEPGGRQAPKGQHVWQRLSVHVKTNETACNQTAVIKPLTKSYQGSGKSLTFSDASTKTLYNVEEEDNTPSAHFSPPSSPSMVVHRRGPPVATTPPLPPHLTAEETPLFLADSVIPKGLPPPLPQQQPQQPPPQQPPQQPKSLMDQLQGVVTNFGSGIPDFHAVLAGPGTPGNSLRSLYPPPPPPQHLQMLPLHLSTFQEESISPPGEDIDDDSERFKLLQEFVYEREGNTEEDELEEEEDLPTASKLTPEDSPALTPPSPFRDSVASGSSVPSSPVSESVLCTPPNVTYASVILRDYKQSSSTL

Example entries and their recorded answers appear below.
INSERT INTO measurements (compound, target_or_system, property_measured, value_measured) VALUES
  ('O=S(=O)(c1cccc(C(F)(F)F)c1)c1sc2ncccc2c1-c1ccc(Cl)cc1', 'rat mGluR1 (Rattus norvegicus)', 'pKi', '< 5.82'),
  ('O=S(=O)(c1cccc(Cl)c1)c1sc2ncccc2c1-c1ccc(Cl)cc1', 'rat mGluR1 (Rattus norvegicus)', 'pKi', '< 5.82'),
  ('O=S(=O)(NCc1ccc(Cl)cc1)c1sc2ncccc2c1-c1ccc(Cl)cc1', 'rat mGluR1 (Rattus norvegicus)', 'pKi', '< 5.82'),
  ('O=S(=O)(c1ccc(Cl)c(Cl)c1)c1sc2ncccc2c1-c1ccc(Cl)cc1', 'rat mGluR1 (Rattus norvegicus)', 'pKi', '5.82 to 6.30'),
  ('COc1ccc(S(=O)(=O)c2sc3ncccc3c2-c2ccc(Cl)cc2)cc1F', 'rat mGluR1 (Rattus norvegicus)', 'pKi', '5.82 to 6.30');

Ask: Lab note: rat mGluR1 (Rattus norvegicus) assay, enter pKi for O=S(=O)(Cc1ccccc1)c1sc2ncccc2c1-c1ccc(Cl)cc1 here
Reply: < 5.82

Ask: Lab note: rat mGluR1 (Rattus norvegicus) assay, enter pKi for N#Cc1cc(F)cc(S(=O)(=O)c2sc3ncccc3c2-c2ccc(Cl)cc2)c1 here
Reply: 5.82 to 6.30

Ask: Lab note: rat mGluR1 (Rattus norvegicus) assay, enter pKi for Nc1cnc2sc(S(=O)(=O)c3ccc(Cl)cc3)c(-c3ccc(Cl)cc3)c2c1 here
Reply: > 6.30

Ask: Lab note: rat mGluR1 (Rattus norvegicus) assay, enter pKi for [O-][S+](c1ccc(Cl)cc1)c1sc2ncccc2c1-c1ccc(Cl)cc1 (stereo not shown) here
Reply: > 6.30

Ask: Lab note: rat mGluR1 (Rattus norvegicus) assay, enter pKi for N#Cc1cccc(S(=O)(=O)c2sc3ncccc3c2-c2ccc(Cl)cc2)c1 here
Reply: > 6.30

----------
Consider the following Ki values measured on rat mGluR1 (Rattus norvegicus).

Example entries and their recorded answers appear below.
INSERT INTO measurements (structure_as_smiles, target_or_system, property_measured, value_measured) VALUES
  ('O=S(=O)(Nc1ccc(Cl)cc1)c1sc2ncccc2c1-c1ccc(Cl)cc1', 'rat mGluR1 (Rattus norvegicus)', 'Ki', '> 1500 nM'),
  ('O=S(=O)(c1ccc(Cl)cc1)c1sc2ncccc2c1-c1ccc(Cl)cc1', 'rat mGluR1 (Rattus norvegicus)', 'Ki', '> 1500 nM'),
  ('Cc1cccc(-c2c(S(=O)(=O)c3cccc(C#N)c3)sc3ncccc23)c1', 'rat mGluR1 (Rattus norvegicus)', 'Ki', '500 to 1500 nM'),
  ('COc1ccc(S(=O)(=O)c2sc3ncccc3c2-c2ccc(Cl)cc2)cc1', 'rat mGluR1 (Rattus norvegicus)', 'Ki', '< 500 nM');

Ask: Lab note: rat mGluR1 (Rattus norvegicus) assay, enter Ki for O=S(=O)(c1cccc(F)c1)c1sc2ncccc2c1-c1ccc(F)cc1 here
Reply: > 1500 nM

Ask: Lab note: rat mGluR1 (Rattus norvegicus) assay, enter Ki for N#Cc1ccc(S(=O)(=O)c2sc3ncccc3c2-c2ccc(Cl)cc2)cc1 here
Reply: > 1500 nM

Ask: Lab note: rat mGluR1 (Rattus norvegicus) assay, enter Ki for Cc1ccc(S(=O)(=O)c2sc3nc(F)ccc3c2-c2ccc(Cl)cc2)cc1F here
Reply: > 1500 nM

Ask: Lab note: rat mGluR1 (Rattus norvegicus) assay, enter Ki for Cc1ccc(S(=O)(=O)c2sc3ncccc3c2-c2ccc(F)cc2)cc1F here
Reply: > 1500 nM

Ask: Lab note: rat mGluR1 (Rattus norvegicus) assay, enter Ki for O=S(=O)(c1cccnc1)c1sc2ncccc2c1-c1ccc(Cl)cc1 here
Reply: > 1500 nM

----------
molecular target: mGluR5 (UniProt P31424)
Ki: recorded values

Example entries and their recorded answers appear below.
INSERT INTO assay_data (compound, property_measured, value_measured) VALUES
  ('O=S(=O)(c1ccc(-c2ccccc2)cc1)c1sc2ncccc2c1-c1ccc(Cl)cc1 [Compound 18]', 'Ki', '> 1500 nM'),
  ('Cc1cc(C)c(S(=O)(=O)c2sc3ncccc3c2-c2ccc(Cl)cc2)c(C)c1 [Compound 56]', 'Ki', '> 1500 nM'),
  ('Cc1ccc(S(=O)(=O)c2sc3ncccc3c2-c2ccc(Cl)cc2)cc1F [Compound 39]', 'Ki', '< 500 nM');

Next up:
Ask: Lab note: mGluR5 (UniProt P31424) assay, enter Ki for O=S(=O)(c1ccc(Cl)cc1)c1sc2ncccc2c1N1CCN(c2ccc(F)cc2)CC1 [Compound 118] here
Reply: > 1500 nM

----------
Consider the following Ki values measured on mGluR5 (UniProt P31424).

INSERT INTO results (compound, value_measured) VALUES
  ('CNC(=O)Nc1c(S(=O)(=O)c2ccc(OC)cc2)sc2ncccc12', '> 1.5 µM'),
  ('[O-][S+](c1ccc(Cl)cc1)c1sc2ncccc2c1-c1ccc(Cl)cc1 (centres unmarked)', '< 0.5 µM');

Ask: Lab note: mGluR5 (UniProt P31424) assay, enter Ki for N#Cc1cc(F)cc(S(=O)(=O)c2sc3nc(Cl)ccc3c2-c2cccc(F)c2)c1 here
Reply: < 0.5 µM

Ask: Lab note: mGluR5 (UniProt P31424) assay, enter Ki for O=S(=O)(c1ccc(Cl)cc1)c1sc2nc(F)ccc2c1-c1ccc(Cl)cc1 here
Reply: < 0.5 µM

Ask: Lab note: mGluR5 (UniProt P31424) assay, enter Ki for O=S(=O)(c1cc(F)cc(C(F)(F)F)c1)c1sc2ncccc2c1-c1ccc(Cl)cc1 here
Reply: < 0.5 µM

Ask: Lab note: mGluR5 (UniProt P31424) assay, enter Ki for CN(C)c1ccc2c(-c3ccc(Cl)cc3)c(S(=O)(=O)c3ccc(Cl)cc3)sc2n1 here
Reply: 0.5 to 1.5 µM

Ask: Lab note: mGluR5 (UniProt P31424) assay, enter Ki for Cc1ccc(-c2c(S(=O)(=O)c3ccc(Cl)cc3)sc3ncccc23)cc1 here
Reply: < 0.5 µM

Ask: Lab note: mGluR5 (UniProt P31424) assay, enter Ki for N#Cc1cccc(S(=O)(=O)c2sc3ncccc3c2-c2ccc(F)cc2)c1 here
Reply: < 0.5 µM
